Target: T1, recombinant human LAG-3-Fc (human, UniProt P18627 23-450)
T1 construct: also called human LAG-3 (R&D Systems cat no. 2319-L3); LAG3 antigen
T1 sequence: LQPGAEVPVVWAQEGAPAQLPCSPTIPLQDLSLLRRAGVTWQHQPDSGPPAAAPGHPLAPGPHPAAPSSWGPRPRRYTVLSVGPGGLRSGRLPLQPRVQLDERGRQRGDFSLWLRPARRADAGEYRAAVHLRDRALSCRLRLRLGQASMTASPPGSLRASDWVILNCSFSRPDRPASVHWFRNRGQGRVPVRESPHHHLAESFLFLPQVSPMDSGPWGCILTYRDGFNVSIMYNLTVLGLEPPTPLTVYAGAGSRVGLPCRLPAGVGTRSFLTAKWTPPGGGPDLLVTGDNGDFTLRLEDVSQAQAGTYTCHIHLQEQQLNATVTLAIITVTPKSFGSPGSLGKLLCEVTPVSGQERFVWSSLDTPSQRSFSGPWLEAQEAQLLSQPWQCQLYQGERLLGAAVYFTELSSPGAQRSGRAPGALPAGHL
Experiment: BLI (Octet); human LAG-3-Fc amine-coupled to biosensor, VH in solution, 1:1 fit
Hi, to clarify the labels: yes covers kon from 30000 M⁻¹ s⁻¹ upward, no covers anything below 30000 M⁻¹ s⁻¹.

query: Hello, I need to know if variant 1 of VH 1.1 (VHH) VHH: EVQLVESGGGVVRPGGSLRLSCAASGFTFDDYGMSWVRQAPGKGLEWVSGIHWNGGNSGYADSVKGRFTISRDNAKNSLYLQMNSLRAEDTALYYCARIPREDCSSASCYTDAIDFWGPGTMVTVSS has measured kon not below 30000 M⁻¹ s⁻¹. Thanks!
result: no

query: Hello, I need to know if variant 3 of VH 1.1 (VHH, 4) VHH: EVQLVESGGGVVRPGGSLRLSCAASGFTFDDYGMSWVRQAPGKGLEWVSGIHWNGGSTGYADSVKGRFTISRDNAKNSLYLQMNSLRAEDTALYYCARIPREDCSSASCYTDAIDFWGPGTMVTVSS has measured kon not below 30000 M⁻¹ s⁻¹. Thanks!
result: no

query: Hello, I need to know if VH 1.1 (VHH, Human VH single domain antibody (Humabody) against LAG-3; also called VH single domain antibody 1.1; monovalent LAG-3 VH 1.1) VHH: EVQLVESGGGVVRPGGSLRLSCSASGFTFDDYGMSWVRQAPGKGLEWVSGIHWNGGNSGYADSVKGRFTISRDNAKNSLYLQMNSLRAEDTALYYCARIPREDCSSASCYTDAIDFWGPGTMVTVSS has measured kon not below 30000 M⁻¹ s⁻¹. Thanks!
result: no

query: Hello, I need to know if variant 4 of VH 1.1 (VHH, 4) VHH: EVQLVESGGGVVRPGGSLRLSCAASGFTFDDYGMSWVRQAPGKGLEWVSGIHWIGGNSGYADSVKGRFTISRDNAKNSLYLQMNSLRAEDTALYYCARIPREDCSSASCYTDAIDFWGPGTMVTVSS has measured kon not below 30000 M⁻¹ s⁻¹. Thanks!
result: yes

query: Hello, I need to know if variant 9 of VH 1.1 (VHH, 4) VHH: EVQLVESGGGVVRPGGSLRLSCAASGFTFDDYGMSWVRQAPGKGLEWVSGIHWNGDSTGYADSVKGRFTISRDNAKNSLYLQMNSLRAEDTALYHCARIPREDCSSASCYTDAIDFWGPGTMVTVSS has measured kon not below 30000 M⁻¹ s⁻¹. Thanks!
result: yes

query: Hello, I need to know if variant 7 of VH 1.1 (VHH, 4) VHH: EVQLVESGGGVVRPGGSLRLSCAASGFTFDDFGMSWVRQAPGKGLEWVSGIHWNGGNTGYADSVKGRFTISRDNAKNSLYLQMNSLRAEDTALYYCARIPREDCSVAACYTDAIDFWGPGTMVTVSS has measured kon not below 30000 M⁻¹ s⁻¹. Thanks!
result: no

query: Hello, I need to know if variant 5 of VH 1.1 (VHH, 4) VHH: EVQLVESGGGVVRPGGSLRLSCAASGFTFNDFGMSWVRQAPGKGLEWVSGIHWNGGNTGYADSVKGRFTISRDNAKNSLYLQMNSLRAEDTALYYCARIPREDCSSASCYTDAIDFWGPGTMVTVSS has measured kon not below 30000 M⁻¹ s⁻¹. Thanks!
result: yes

query: Hello, I need to know if variant 6 of VH 1.1 (VHH, 4) VHH: EVQLVESGGGVVRPGGSLRLSCAASGFTFDDFGMSWVRQAPGKGLEWVSGIHWNSDITAYADSVKGRFTISRDNAKNSLYLQMNSLRAEDTALYYCARIPREDCSSASCYTDAIDFWGPGTMVTVSS has measured kon not below 30000 M⁻¹ s⁻¹. Thanks!
result: yes
